All values here come from patent US5444055A.

- Target Entity: Na^+,K^+ -ATPase (Homo sapiens)
- Protocol Description: displacement of specific ^3 H-ouabain binding from purified Na^+,K^+ -ATPase receptor
- Measurement Parameters: read-out: Binding ^3 H-Ouab. Displacement -log IC50 (converted)
Answer each item with its documented log10 IC50.
In our notation, the value equals log10 of IC50 in nM.

Here's what some known entries look like.
CO/N=C/[C@H]1CC[C@]2(O)[C@@H]3CC[C@@H]4C[C@@H](O)CC[C@]4(C)[C@H]3CC[C@]12C [Comp. I-aa]
3.60
C[C@]12CC[C@H](O)C[C@H]1CC[C@@H]1[C@@H]2CC[C@]2(C)[C@@H](/C=N/OCCN)CC[C@]12O [Comp. I-ab]
1.90
C/C(=N\OCCN(C)C)[C@H]1CC[C@]2(O)[C@@H]3CC[C@@H]4C[C@@H](O)CC[C@]4(C)[C@H]3CC[C@]12C [Comp. I-ai]
1.90
C[C@]12CC[C@H](O)C[C@H]1CC[C@@H]1[C@@H]2CC[C@]2(C)[C@@H](/C=N/OCCNC(=N)N)CC[C@]12O [Comp. I-ag]
2.20
CO/N=C/[C@H]1CC[C@]2(O)[C@@H]3CC[C@@H]4C[C@@H](OCCN5CCCC5)CC[C@]4(C)[C@H]3CC[C@]12C [Comp. I-ar]
2.90
CN(C)CCO/N=C/[C@H]1CC[C@]2(O)[C@@H]3CC[C@@H]4C[C@@H](OCCCN)CC[C@]4(C)[C@H]3CC[C@]12C [Comp. I-as]
1.60
CN(C)CCO/N=C/[C@H]1CC[C@]2(O)[C@@H]3CC[C@@H]4CC(=NNC(=N)N)CC[C@]4(C)[C@H]3CC[C@]12C (mixture of isomers) [Comp. I-aw]
1.90
CN(C)CCON=C1CC[C@@]2(C)[C@H](CC[C@@H]3[C@@H]2CC[C@]2(C)[C@@H](/C=N/OCCN(C)C)CC[C@]32O)C1 (mixture of isomers) [Comp. I-az]
2.10

Each compound below has a recorded value; state its log10 IC50.
1. CO/N=C/[C@H]1CC[C@]2(O)[C@@H]3CC[C@@H]4C[C@@H](OCCCN)CC[C@]4(C)[C@H]3CC[C@]12C [Comp. I-aq]
2. CN(C)CCCO/N=C/[C@H]1CC[C@]2(O)[C@@H]3CC[C@@H]4C[C@@H](O)CC[C@]4(C)[C@H]3CC[C@]12C [Comp. I-af]
3. CN(C)CCO/N=C/[C@@]1(O)CC[C@]2(O)[C@@H]3CC[C@@H]4C[C@@H](O)CC[C@]4(C)[C@H]3CC[C@]12C [Comp. I-ak]
4. CN(C)CCO/N=C/[C@H]1CC[C@]2(O)[C@@H]3CC[C@@H]4C[C@@H](O)CC[C@]4(C)[C@H]3CC[C@]12C [Comp. I-ad]

[A]
1. 2.80
2. 2.20
3. 3.00
4. 1.60
